System: P. Falciparum NF54
assayExplanation: Plasmodium falciparum in vitro assay ([3H]-hypoxanthine incorporation)
Format: cell-based
experimentalContext: Plasmodium falciparum, Erythrocyte, P. Falciparum NF54, erythrocytic stages in human red blood cells, 50% human serum
pIC50: −log10 of the molar value.
Kindly return condition met if reported pIC50 is no lower than 7; return condition not met if it is lower.

Hi team, for Cc1cc(Nc2ccc(CN(C(=O)/C=C/c3ccc(C(F)(F)F)cc3)C3CCN(Cc4ncc5ccccn45)CC3)cc2)ccn1 [Example 46] , is the recorded pIC50 at or above 7? condition not met

###

Here, each record is paired with measured IC50 data.
Tested on: P. Falciparum NF54
assayExplanation: Plasmodium falciparum in vitro assay ([3H]-hypoxanthine incorporation)
Assay type: cell-based
experimentalContext: Plasmodium falciparum, Erythrocyte, P. Falciparum NF54, erythrocytic stages in human red blood cells, 50% human serum
Method: In Vitro Antimalarial Activity: Plasmodium falciparum In Vitro Assay: In vitro activity against erythrocytic stages of P. Falciparum in human red blood cells is determined using a [^3H]-hypoxanthine incorporation assay. One strain sensitive to all drugs (P. […] The dried filters are inserted into a plastic foil with 10 mL of scintillation fluid and counted in a Betaplate liquid scintillation counter. IC50 values are calculated from sigmoidal inhibition curves using Microsoft Excel.
Numeric answer only, unit nM assumed.

// below: answered compounds
{"querySmiles": "CN(c1ccncc1)c1ccc(CN(C(=O)/C=C/c2ccc(C(F)(F)F)cc2)C2CCNCC2)cc1", "observedMeasurement": 121}
{"querySmiles": "Cc1cc(Nc2ccc(CN(CCCN(C)C)C(=O)/C=C/c3ccc(C(F)(F)F)cc3)cc2)ccn1", "observedMeasurement": 68}
{"querySmiles": "CN(c1ccncc1)c1ccc(CN(C(=O)/C=C/c2ccc(C(F)(F)F)cc2)C2CCN(Cc3ccc(Cl)c(Cl)c3)CC2)cc1", "observedMeasurement": 84}

Please examine the following record next.
I am curious: what IC50 value has been reported for Cc1cc(Nc2ccc(CN(C(=O)/C=C/c3ccc(Cl)cc3)C3CCN(C4CCN(C)CC4)CC3)cc2)ccn1 ? 305
